targetSystem: Solute carrier family 2, facilitated glucose transporter member 1 (Homo sapiens) (UniProt P11166)
Sequence (P11166 whole entry): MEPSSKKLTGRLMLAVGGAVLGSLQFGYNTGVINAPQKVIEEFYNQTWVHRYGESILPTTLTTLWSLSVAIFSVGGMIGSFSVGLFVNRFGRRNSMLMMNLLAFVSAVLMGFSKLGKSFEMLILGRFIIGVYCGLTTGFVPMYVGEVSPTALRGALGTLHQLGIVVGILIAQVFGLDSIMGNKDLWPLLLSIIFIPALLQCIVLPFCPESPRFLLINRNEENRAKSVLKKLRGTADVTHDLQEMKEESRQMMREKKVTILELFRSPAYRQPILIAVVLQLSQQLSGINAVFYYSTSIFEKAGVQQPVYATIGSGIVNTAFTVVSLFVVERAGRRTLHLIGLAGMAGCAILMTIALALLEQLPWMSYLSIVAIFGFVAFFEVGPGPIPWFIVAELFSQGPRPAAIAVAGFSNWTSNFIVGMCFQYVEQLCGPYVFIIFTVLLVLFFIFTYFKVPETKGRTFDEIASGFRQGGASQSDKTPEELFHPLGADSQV
assay: ST_JUDE_LEISH: Cytotoxicity at 2uM final concentration against transgenic Leishmania Mexicana promastigotes LmGLUT1 that are glucose transport deficient and complemented with the human glucose transporter GLUT1. Activity is measured by DNA content using SYBR green in vitro
Assay type: functional
Let's look at some compounds and their measured inhibition.

Worked examples, 4 compounds total:
compound: CN(C)CCNCc1cccc(-c2cccc(-c3nc4ccccc4[nH]3)c2)c1
propertyMeasured: inhibition
reported: 2.56%

compound: COc1ccc2nccc(N(C)CC3(O)CCN(CCc4ccc5c(c4)OCCO5)CC3)c2n1
propertyMeasured: inhibition
reported: 0.49%

compound: Cc1ccc(NC(=O)c2cccc(CN3CCCN(Cc4cccc(O)c4)CC3)c2)cc1
propertyMeasured: inhibition
reported: -0.49%

compound: CC(Oc1cc(-n2cnc3ccc(NC(=O)CCN4CCCCC4)cc32)sc1C(N)=O)c1ccccc1Cl (stereo not given)
propertyMeasured: inhibition
reported: 16.8%

### Prompt What value of inhibition has been reported for the following compound? NC1=NC(c2ccccc2)(c2ccccn2)C(=O)N1CCCc1ccccc1 (stereo not given)
### Response 6.44%
